Biological target: Estrogen receptor beta (Homo sapiens, UniProt Q92731)
Sequence (Q92731 whole entry): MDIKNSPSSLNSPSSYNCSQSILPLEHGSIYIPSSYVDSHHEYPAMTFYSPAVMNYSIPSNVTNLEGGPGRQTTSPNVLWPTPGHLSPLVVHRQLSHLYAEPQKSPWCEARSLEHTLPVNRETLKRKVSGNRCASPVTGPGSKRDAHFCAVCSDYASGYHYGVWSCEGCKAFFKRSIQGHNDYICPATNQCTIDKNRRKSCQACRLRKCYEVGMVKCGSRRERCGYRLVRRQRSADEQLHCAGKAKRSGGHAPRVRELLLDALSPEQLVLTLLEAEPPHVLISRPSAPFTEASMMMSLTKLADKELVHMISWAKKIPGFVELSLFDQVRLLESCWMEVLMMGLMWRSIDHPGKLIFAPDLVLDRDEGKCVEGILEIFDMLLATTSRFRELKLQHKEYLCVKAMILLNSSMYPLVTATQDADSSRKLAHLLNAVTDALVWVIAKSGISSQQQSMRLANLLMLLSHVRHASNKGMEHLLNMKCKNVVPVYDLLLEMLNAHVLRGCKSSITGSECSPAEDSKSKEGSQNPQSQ
Assay: Displacement of [3H]17-beta-estradiol from human recombinant full length ERbeta
Quantity Measured: IC50

// IC50 value for Oc1ccc([C@H]2CCc3ccc(O)cc3O2)cc1 [TUPICHINOL C] : 14.7 µM

// IC50 value for COc1ccc(CCCc2ccc(O)cc2)c(O)c1 [BROUSSONIN A] : 1.8 µM

// IC50 value for "CC(C)=CCc1c([C@H]2CCc3ccc(O)cc3O2)cc(O)c(O)c1CC=C(C)C" : 96 µM

// IC50 value for CC(C)=CCc1c([C@H]2CCc3ccc(O)cc3O2)ccc(O)c1O [KAZINOL U] : 41.7 µM

====

Please respond with reported pIC50 for every item in the list.
Target: Estrogen receptor (Homo sapiens, UniProt P03372)
Assay: Displacement of [3H]17-beta-estradiol from human recombinant full length ERalpha
Keep it numeric: pIC50 is minus log10 of the concentration in mol/L.

// pIC50 value for "CC(C)=CCc1c([C@H]2CCc3ccc(O)cc3O2)ccc(O)c1O" : 4.24

// pIC50 value for "COc1ccc(CCCc2ccc(O)cc2)c(O)c1" : 5.09

// pIC50 value for "CC(C)=CCc1c([C@H]2CCc3ccc(O)cc3O2)cc(O)c(O)c1CC=C(C)C" : 3.82

// pIC50 value for "Oc1ccc([C@H]2CCc3ccc(O)cc3O2)cc1" : 4.58

====

Biological target: Estrogen receptor (Homo sapiens) (UniProt P03372)
Sequence (P03372 whole entry): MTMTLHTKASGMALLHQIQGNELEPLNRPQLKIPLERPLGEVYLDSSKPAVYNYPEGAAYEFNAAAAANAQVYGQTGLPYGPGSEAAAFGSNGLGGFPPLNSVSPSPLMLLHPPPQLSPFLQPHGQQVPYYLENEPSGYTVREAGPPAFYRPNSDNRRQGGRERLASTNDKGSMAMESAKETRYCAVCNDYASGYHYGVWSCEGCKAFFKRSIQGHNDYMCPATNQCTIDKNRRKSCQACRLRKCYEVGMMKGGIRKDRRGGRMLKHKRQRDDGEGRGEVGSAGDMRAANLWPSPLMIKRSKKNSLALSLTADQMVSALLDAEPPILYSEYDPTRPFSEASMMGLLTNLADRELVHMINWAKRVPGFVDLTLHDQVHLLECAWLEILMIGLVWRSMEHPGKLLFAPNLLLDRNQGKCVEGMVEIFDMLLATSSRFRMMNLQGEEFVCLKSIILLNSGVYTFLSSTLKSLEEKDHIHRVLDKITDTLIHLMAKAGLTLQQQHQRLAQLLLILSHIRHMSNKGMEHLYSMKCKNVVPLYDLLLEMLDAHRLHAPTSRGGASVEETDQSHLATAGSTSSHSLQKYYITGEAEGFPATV
Assay: Displacement of [3H]17-beta-estradiol from human recombinant full length ERalpha relative to estradiol
Please respond with reported RBA for every item in the list.
Number in %, nothing else.

// RBA value for CC(C)=CCc1c([C@H]2CCc3ccc(O)cc3O2)ccc(O)c1O [KAZINOL U] : 0.01

// RBA value for "CC(C)=CCc1c([C@H]2CCc3ccc(O)cc3O2)cc(O)c(O)c1CC=C(C)C" : 0.004

// RBA value for COc1ccc(CCCc2ccc(O)cc2)c(O)c1 [BROUSSONIN A] : 0.069

// RBA value for Oc1ccc([C@H]2CCc3ccc(O)cc3O2)cc1 [TUPICHINOL C] : 0.021

====

Organism: Homo sapiens
Assay: Selectivity ratio of IC50 for human recombinant full length ERbeta to IC50 for human recombinant full length ERalpha
Please respond with reported Ratio IC50 for every item in the list.
// response body must contain only the number

// Ratio IC50 value for "Oc1ccc([C@H]2CCc3ccc(O)cc3O2)cc1" : 2.29

// Ratio IC50 value for "CC(C)=CCc1c([C@H]2CCc3ccc(O)cc3O2)cc(O)c(O)c1CC=C(C)C" : 1.75

// Ratio IC50 value for "CC(C)=CCc1c([C@H]2CCc3ccc(O)cc3O2)ccc(O)c1O" : 1.7

// Ratio IC50 value for "COc1ccc(CCCc2ccc(O)cc2)c(O)c1" : 5.71

====

Target: Estrogen receptor beta (Homo sapiens)
Assay: Displacement of [3H]17-beta-estradiol from human recombinant full length ERbeta relative to estradiol
Please respond with reported RBA for every item in the list.
Number in %, nothing else.

// RBA value for COc1ccc(CCCc2ccc(O)cc2)c(O)c1 [BROUSSONIN A] : 0.394

// RBA value for Oc1ccc([C@H]2CCc3ccc(O)cc3O2)cc1 [TUPICHINOL C] : 0.048

// RBA value for CC(C)=CCc1c([C@H]2CCc3ccc(O)cc3O2)ccc(O)c1O [KAZINOL U] : 0.017

// RBA value for "CC(C)=CCc1c([C@H]2CCc3ccc(O)cc3O2)cc(O)c(O)c1CC=C(C)C" : 0.007
